test: chemical genetic growth profiling, strain panel (AID 1159580);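 also: tested at 20 µM; growth read once vehicle control cultures reached saturation at 30 °C; 1 = growth at the plate median or of vehicle wells; lower values mean less growth of the strain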; details: S. cerevisiae deletion strains, growth OD, locus YNL322C, strain KRE1 (second series), stronger effect = lower value
In all, about 5,500 compounds went through this assay and about 2,000 (36%) were called active. Inconclusive results (about 18%) are left out. Some of the results follow.
// reported normalized growth for each item listed
readoutName: normalized growth

[[record]]
compound = "CN(C)CCCO[C@H]1[C@@H](C(O)CO)OC2OC(C)(C)O[C@@H]21 (stereo not given in full)"
readoutname = "normalized growth"
observedresult = 0.968

[[record]]
compound = "CCCN(CCC)C(=O)C(CCC(=O)O)NC(=O)c1ccccc1 (stereo not given)"
readoutname = "normalized growth"
observedresult = 0.99

[[record]]
compound = "CS(=O)(=O)OCCCCOS(C)(=O)=O"
readoutname = "normalized growth"
observedresult = 1.04

[[record]]
compound = "CN(Cc1cnc2nc(N)nc(N)c2n1)c1ccc(C(=O)NC(CCC(=O)O)C(=O)O)cc1 (stereo not given)"
readoutname = "normalized growth"
observedresult = 0.512

[[record]]
compound = "C=CCN1CC[C@]23c4c5ccc(O)c4OC2C(=O)CC[C@@]3(O)[C@H]1C5 (stereo not given in full)"
readoutname = "normalized growth"
observedresult = 0.927

[[record]]
compound = "O=C1O[C@@H](CO)[C@H](O)[C@@H](O)[C@@H]1O"
readoutname = "normalized growth"
observedresult = 1

[[record]]
compound = "COc1ccc(C[C@H](N)C(=O)N[C@@H]2[C@@H](CO)OC(n3cnc4c(N(C)C)ncnc43)[C@@H]2O)cc1 (stereo not given in full)"
readoutname = "normalized growth"
observedresult = 0.994

[[record]]
compound = "CCC(COC(=O)c1cc(OC)c(OC)c(OC)c1)(c1ccccc1)N(C)C (stereo not given)"
readoutname = "normalized growth"
observedresult = 0.972

[[record]]
compound = "Cc1cccc(CN2CCN(C(c3ccccc3)c3ccc(Cl)cc3)CC2)c1 (stereo not given)"
readoutname = "normalized growth"
observedresult = 0.685

[[record]]
compound = "CN1CCc2cccc3c2C1Cc1ccc(O)c(O)c1-3 (stereo not given)"
readoutname = "normalized growth"
observedresult = 1.01


* * *

assay: chemical genetic growth profiling, strain panel (AID 1159580);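 also: tested at 20 µM; growth read once vehicle control cultures reached saturation at 30 °C; 1 = growth at the plate median or of vehicle wells; lower values mean less growth of the strain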; settings: S. cerevisiae deletion strains, growth OD, locus YPL256C, strain CLN2, stronger effect = lower value
In all, about 5,500 compounds went through this assay and about 2,000 (36%) were called active. Roughly 18% stayed inconclusive and do not appear here. The list shows a part of the results.
Measured normalized growth, listed per entry for reference.
readoutName: normalized growth

[[record]]
compound = "CCCNC(C)C(=O)Nc1ccccc1C (stereo unspecified)"
readoutname = "normalized growth"
observedresult = 1.09

[[record]]
compound = "CN(C)/C=C/C(=O)c1ccc(C#Cc2ccccc2)cc1"
readoutname = "normalized growth"
observedresult = 0.98

[[record]]
compound = "CC(=O)Oc1cc(C)c2c(c1C(OC(C)=O)OC(C)=O)Oc1c(c(C)c(OC(C)=O)c3c1C(OC(C)=O)OC3=O)OC2=O (stereo unspecified)"
readoutname = "normalized growth"
observedresult = 0.892

[[record]]
compound = "CCn1cc(C(=O)O)c(=O)c2ccc(C)nc21"
readoutname = "normalized growth"
observedresult = 0.993

[[record]]
compound = "CCCCCc1ccc(S(=O)(=O)Nc2ccc3c(c2)C(=O)OC3)cc1"
readoutname = "normalized growth"
observedresult = 0.923

[[record]]
compound = "CN(Cc1cc(Br)cc(Br)c1N)C1CCCCC1"
readoutname = "normalized growth"
observedresult = 0.944

